This collection of values is drawn from PubChem BioAssay (NCI).

# ASSAY_SUMMARY: NCI Yeast Anticancer Drug Screen. Data for the bub3 strain (AID 167)
# PROTOCOL_CONDITIONS: S. cerevisiae bub3 mutant strain, at 50.0 µM
This is part of a sample that, as a whole, favours compounds with a hit. Of some 79,000 tested, about 15% had one in any assay. Calls of active or inactive are those of the source. No stated cut-off is given here; in the data, active means growth inhibition above about 70%; inactive means the rest.
Labels: yes (1) = active, no (0) = inactive

COMPOUND: CC1=CC(O)C(Br)C(C)(C)C12CCC(C)(Cl)C(Br)C2 (stereo not drawn)
CATEGORY_LABEL: yes (1)
//
COMPOUND: O=C([O-])[C+](C=Cc1cccc2ccccc12)C(=O)O
CATEGORY_LABEL: no (0)
//
COMPOUND: Cc1ccccc1NN
CATEGORY_LABEL: no (0)
//
COMPOUND: COC(=O)[C@H](Cc1ccc(OC(C)(C)C)cc1)N[C@H](C)C(=O)N[C@@H](Cc1ccccc1)C(=O)OCc1ccccc1
CATEGORY_LABEL: no (0)
//
COMPOUND: Cc1ccc(NC(=S)N2CCCCC2C)cc1C (stereo not drawn)
CATEGORY_LABEL: no (0)
//
COMPOUND: CCC(=S)Nc1ccc(Cl)cc1
CATEGORY_LABEL: no (0)
//
COMPOUND: Cn1c(=O)n(C2(C)CSC2)c2ccccc21
CATEGORY_LABEL: no (0)
//
COMPOUND: C1OC1CO[C@H]1CO[C@H]2[C@@H]1OC[C@@H]2OCC1CO1 (stereo partly drawn)
CATEGORY_LABEL: no (0)
//
COMPOUND: C=CCOC(=O)Nc1cccc(O)c1
CATEGORY_LABEL: no (0)
//
COMPOUND: OCc1c(CO)c(-c2ccc(Cl)cc2)n2c1CCC2
CATEGORY_LABEL: no (0)
//
COMPOUND: Cn1cc(C(C)(c2ccccc2)c2cn(C)c3ccccc23)c2ccccc21
CATEGORY_LABEL: no (0)
//
COMPOUND: COc1ccc2[nH]cc(CC(NC(C)=O)C(=O)O)c2c1 (stereo not drawn)
CATEGORY_LABEL: no (0)
//
COMPOUND: O=[N+]([O-])c1ccccc1C=Nc1ccccc1O
CATEGORY_LABEL: yes (1)
//
COMPOUND: COC(=O)N/N=C/c1cccc(C)n1
CATEGORY_LABEL: no (0)
//
COMPOUND: COc1cc(-c2nnc3n2NC=C(C(=O)O)S3)cc(OC)c1OC
CATEGORY_LABEL: no (0)
//
COMPOUND: O=C(CNOCc1ccccc1)OCc1ccccc1
CATEGORY_LABEL: no (0)
//
COMPOUND: N#C/C=C/c1cccc(Cl)c1
CATEGORY_LABEL: no (0)
//
COMPOUND: CCC1C(OC)=CC(CC)(CO)C=C1OC (stereo not drawn)
CATEGORY_LABEL: no (0)
//
COMPOUND: OCC1c2ccccc2C(CO)c2c1ccc1ccccc21 (stereo not drawn)
CATEGORY_LABEL: no (0)
//
COMPOUND: O=C1NC(Cc2ccc(O)cc2)C(=O)N2CCCC12 (stereo not drawn)
CATEGORY_LABEL: no (0)
//
COMPOUND: CN(N=Nc1ccc(C#N)cc1)C(C)(C)C
CATEGORY_LABEL: no (0)
//
COMPOUND: O=S1(=O)CCC(N(N=C2CCCCC2)c2ccccc2)C1 (stereo not drawn)
CATEGORY_LABEL: yes (1)
//
COMPOUND: CSCCCNC(=O)c1csc(-c2csc(CCNC(=O)[C@@H](NSc3ccccc3[N+](=O)[O-])[C@@H](C)O)n2)n1
CATEGORY_LABEL: no (0)
//
COMPOUND: CCN1C(=O)c2ccccc2C1=O
CATEGORY_LABEL: no (0)
//
COMPOUND: Nc1nc(N)c(N=Nc2cc(Cl)c([N+](=O)[O-])cc2Cl)c(=O)[nH]1
CATEGORY_LABEL: no (0)
//
COMPOUND: Cc1ccc(NC2=N/C(=C/c3ccco3)C(Cl)=N2)cc1
CATEGORY_LABEL: no (0)
//
COMPOUND: O=C1CSC(c2ccccc2)N1O (stereo not drawn)
CATEGORY_LABEL: no (0)
//
COMPOUND: Cc1nc(N)nc(C)c1N=Nc1cc(Cl)cc(Cl)c1
CATEGORY_LABEL: no (0)
//
COMPOUND: CC(=O)N1CC(=O)N2C(=O)/C(=C/c3ccc(Cl)cc3)N=C12
CATEGORY_LABEL: no (0)
//
COMPOUND: Nc1nc(N)c(-c2ccc(Cl)cc2)c(CNc2cccc([N+](=O)[O-])c2)n1
CATEGORY_LABEL: yes (1)
//
COMPOUND: CC(=O)C1CN(C)CCC1=O (stereo not drawn)
CATEGORY_LABEL: no (0)
//
COMPOUND: COC(=O)C(C(=O)c1ccccc1)C(C(=O)C(=O)Nc1ccc(OC)cc1OC)C(=O)C(=O)c1ccc(C)cc1 (stereo not drawn)
CATEGORY_LABEL: no (0)
//
COMPOUND: CCCOC(=O)c1c(C)c(C)cc(C)c1C
CATEGORY_LABEL: no (0)
//
COMPOUND: CC1=C(C(c2ccccc2)c2ccccc2)C(=O)c2ccccc2C1=O
CATEGORY_LABEL: no (0)
//
COMPOUND: NS(=O)(=O)c1ccc(NC(=O)c2cccc3c(=O)c4ccccc4[nH]c23)cc1
CATEGORY_LABEL: no (0)
//
COMPOUND: Nc1ccc2c(c1)C(=O)c1c(F)c(F)c(F)c(F)c1-2
CATEGORY_LABEL: no (0)
//
COMPOUND: CCCCCCCC(=O)OC(CC)CCCC (stereo not drawn)
CATEGORY_LABEL: no (0)
//
COMPOUND: O=C(/C=C/c1ccc(O)cc1)OC[C@@H](O)COC1OC(CO)C(O)C(O)C1O (stereo partly drawn)
CATEGORY_LABEL: no (0)
//
COMPOUND: O=[N+]([O-])C(=C(N1CCCCC1)N1CCCCC1)/C(Cl)=C(\Cl)Br
CATEGORY_LABEL: no (0)
//
COMPOUND: CC(C)Sc1nc2ccc(NC(=O)/C=C/C(=O)O)cc2s1
CATEGORY_LABEL: no (0)
//
COMPOUND: CSc1nc2ncnc(N(C)C)c2[nH]1
CATEGORY_LABEL: no (0)
//
COMPOUND: CC(=O)N[C@@H]1CCC[C@H](NC(C)=O)C1
CATEGORY_LABEL: no (0)
//
COMPOUND: O=C1CC[C@@H](S(=O)(=O)c2ccccc2)[C@H](/C=C/c2ccccc2)O1
CATEGORY_LABEL: no (0)
//
COMPOUND: CC12CCC(/C(=C/N3CCCCC3)C1=O)C2(C)C (stereo not drawn)
CATEGORY_LABEL: no (0)
//
COMPOUND: CCOC(=O)/C(C)=C1\N=C(c2ccccc2)OC(=NC2CCCCC2)N1C1CCCCC1
CATEGORY_LABEL: no (0)
//
COMPOUND: COc1ccc(CCNC(=O)Cc2cc(OCc3ccccc3)c(OC)cc2[N+](=O)[O-])cc1OC
CATEGORY_LABEL: no (0)
//
COMPOUND: CCOC(=O)/C(O)=C(/C=NC(=S)c1ccncc1)C(=O)OCC
CATEGORY_LABEL: no (0)
//
COMPOUND: COC(=O)C[C@H]1CCC2(OCCO2)[C@]1(C)C(=O)OC
CATEGORY_LABEL: no (0)
